TEST DESCRIPTION: Phase I study of DGJ, pharmacokinetics in plasma and urine
Assay type: in vivo, human
MEASUREMENT PARAMETERS: 50 mg b.i.d. oral, Day 7, plasma
READOUT: Cmax (µM)

* OC[C@H]1NC[C@H](O)[C@@H](O)[C@H]1O | 39

* * *

TEST DESCRIPTION: Phase I study of DGJ, pharmacokinetics in plasma and urine
Type: in vivo, human
MEASUREMENT PARAMETERS: 50 mg b.i.d. oral, Day 1, plasma
READOUT: Cmax (nM)

- OC[C@H]1NC[C@H](O)[C@@H](O)[C@H]1O: 2300

Reference source: patent US9937165B2
